# measurementNotes: OPRM1-OPRD1 heterodimerization promoters, counter-screen for HTR5A agonist project, cell-based, luminescence (AID 504913)
# particulars: U2OS counter-screen cells, complementation luminescence, 3 h; at 9.3 µM; stronger effect = higher value
The list shows a part of the results.
Listing of entries alongside the reported activation.

{"chemicalStructure": "CC(=O)N1CCN(c2ccccc2NC(=S)NC(=O)c2cc3ccccc3o2)CC1", "activation, %": 0.56}
{"chemicalStructure": "CCOc1ccc(NC(=O)Nc2cc(C)on2)cc1", "activation, %": 0.12}
{"chemicalStructure": "CC(=O)c1c(C)[nH]c(C(=O)OCC(=O)Nc2c(C)cccc2C)c1C", "activation, %": 1.59}
{"chemicalStructure": "C/C(=N\\NC(=O)CNc1cccc2ccccc12)c1ccc(Br)s1", "activation, %": -1.65}
{"chemicalStructure": "CN(c1ccccc1)S(=O)(=O)c1cc(C(=O)N2CCN(c3ncccn3)CC2)ccc1Cl", "activation, %": -0.79}
{"chemicalStructure": "c1ccc(-n2nc3ccccc3n2)cc1", "activation, %": 2.66}
{"chemicalStructure": "COc1cccc(OCC(=O)Nc2ccccc2C(N)=O)c1", "activation, %": 0.46}
{"chemicalStructure": "CNc1nnc(-c2ccco2)s1", "activation, %": 4.29}

* * *

This listing pairs molecules with measured activation.
# measurementNotes: OPRM1-OPRD1 heterodimerization promoters, counter-screen for HTR5A agonist project, cell-based, luminescence (AID 504913)
# particulars: U2OS counter-screen cells, complementation luminescence, 3 h; at 9.3 µM; stronger effect = higher value
The list shows a part of the results.
property: activation (%)

{"molecule": "CCOC(=O)c1cnc2sccn2c1=O", "endpointValue": 1.07}
{"molecule": "Cc1ccccc1CN1CCN(CC(=O)NCc2ccccn2)C1=O", "endpointValue": 0.64}
{"molecule": "CCN(CC(=O)Nc1cccc(S(=O)(=O)N2CCCCC2)c1)Cc1ccccc1", "endpointValue": 4.65}
{"molecule": "CCn1nc(C(=O)OCC(=O)N2c3ccccc3CC2C)c2ccccc2c1=O (configuration not stated)", "endpointValue": 1.02}
{"molecule": "Cc1oc2c(F)c(F)c(F)c(F)c2c1S(=O)(=O)Nc1cccc(C(F)(F)F)c1", "endpointValue": -0.99}
{"molecule": "CC1(C)C2CCC1(CS(=O)(=O)NCCc1c[nH]c3ccccc13)C(=O)C2 (configuration not stated)", "endpointValue": 0.82}
{"molecule": "CC(=O)COc1ccc2c(-c3ccccc3)cc(=O)oc2c1", "endpointValue": 63.2}
{"molecule": "O=C(CC1Nc2ccccc2NC1=O)Nc1ccccc1 (configuration not stated)", "endpointValue": 2.23}
{"molecule": "Cc1c(C(=O)OCC(=O)N2CCCC2=O)oc2ccccc12", "endpointValue": 1.27}
{"molecule": "Cc1cccc2sc(N(CCCN(C)C)C(=O)CCS(=O)(=O)c3ccccc3)nc12", "endpointValue": 0.46}
{"molecule": "CCCN(CCc1ccccc1)C1CCc2c(O)cccc2C1 (configuration not stated)", "endpointValue": 11.3}
{"molecule": "CCC(C)NC(=O)CCCc1ccccc1 (configuration not stated)", "endpointValue": 1.02}

* * *

# measurementNotes: OPRM1-OPRD1 heterodimerization promoters, counter-screen for HTR5A agonist project, cell-based, luminescence (AID 504913)
# particulars: U2OS counter-screen cells, complementation luminescence, 3 h; at 9.3 µM; stronger effect = higher value
The list shows a part of the results.
Below, each entry is listed alongside its reported activation.
property: activation (%)

{"molecule": "COc1ccc2[nH]cc(CCN3C(=O)c4ccc(C(=O)O)cc4C3=O)c2c1", "unitSymbol": "%", "endpointValue": 1.66}
{"molecule": "CCCOc1ccc(C(=O)C(CCC(CNCC)C(=O)c2ccc(OCCC)cc2)CNCC)cc1 (stereo not given)", "unitSymbol": "%", "endpointValue": -0.5}
{"molecule": "Cc1c(C(=O)OCC(=O)N(CCC#N)c2ccccc2)oc2c1ccc1ccccc12", "unitSymbol": "%", "endpointValue": 1.04}
{"molecule": "COc1ccccc1S(=O)(=O)NCc1ccc(C(=O)N(C)Cc2ccc(F)cc2)cc1", "unitSymbol": "%", "endpointValue": 3.43}
{"molecule": "COc1ccc(-c2ocnc2C(=O)Nc2ccc3c(c2)CCC3)cc1", "unitSymbol": "%", "endpointValue": -2.69}
